The reported numbers originate from ChEMBL document CHEMBL1145222.

System: Escherichia coli
Experiment summary: Zone of inhibition of Escherichia coli at compound concentration of 160 mg/mL
Format: functional
As shown below, each of these compounds has a reported Inhibition value.
Measurement kind: Inhibition (mm)

1. Nc1ccc(S(=O)(=O)Nc2ncccn2)cc1	12.5
2. Nc1ccc(S(N)(=O)=O)cc1 [SULFANILAMIDE]	20.5
3. COc1ccc(Cl)cc1C(=O)NCN1CCOCC1	12.5
4. COc1ccc(Cl)cc1C(=O)NCNc1ccc(S(=O)(=O)Nc2ncccn2)cc1	9.5

====

Test system: Pseudomonas aeruginosa
Experiment summary: Zone of inhibition of Pseudomonas aeruginosa at compound concentration of 80 mg/mL
Assay type: functional
As shown below, each of these compounds has a reported Inhibition value.
Measurement kind: Inhibition (mm)

1. COc1ccc(Cl)cc1C(=O)NCNc1ccc(S(=O)(=O)Nc2ncccn2)cc1	7.5
2. COc1ccc(Cl)cc1C(=O)NCN1CCOCC1	10.5
3. Nc1ccc(S(N)(=O)=O)cc1 [SULFANILAMIDE]	15.5
4. COc1ccc(Cl)cc1C(=O)NCNc1ccc(S(=O)(=O)[N-]C(C)=O)cc1.[Na+]	12.5
5. COc1ccc(Cl)cc1C(=O)NCNc1ccc(S(=O)(=O)NN)cc1	8
6. COc1ccc(Cl)cc1C(=O)NCN(C)C	7.5
